Attribute: remaining at 48 h, 100 µM
assay: Stability in mouse plasma assessed as parent compound remaining at 100 uM measured after 48 hrs by HPLC analysis; type: ADME, cell-free; details: read-out: Stability

testSmiles: COc1ccc(C[C@H](NC(=O)OCCSSCCO)C(=O)N[C@H]2[C@@H](O)[C@H](n3cnc4c(N(C)C)ncnc43)O[C@@H]2CO)cc1
remaining at 48 h, 100 µM: 42%

testSmiles: COc1ccc(C[C@H](NC(=O)OC2CCCC2)C(=O)N[C@H]2[C@@H](O)[C@H](n3cnc4c(N(C)C)ncnc43)O[C@@H]2CO)cc1
remaining at 48 h, 100 µM: > 90%

testSmiles: COc1ccc(C[C@H](NC(=O)OC2CSSC2)C(=O)N[C@H]2[C@@H](O)[C@H](n3cnc4c(N(C)C)ncnc43)O[C@@H]2CO)cc1
remaining at 48 h, 100 µM: > 90%

Here's the next entry for you.
Note to self: remaining at 48 h, 100 µM recorded for COc1ccc(C[C@H](NC(=O)OCCCCCCO)C(=O)N[C@H]2[C@@H](O)[C@H](n3cnc4c(N(C)C)ncnc43)O[C@@H]2CO)cc1 was > 90%
